assay: In vitro percent inhibition of LPS induced B-cell proliferation at the dose 1 ug/mL; assay type: functional
measured property: inhibition at 1 µg/mL (%)
Note: unit % is implicit; provide only the numeric part.

INPUT: What value of inhibition at 1 µg/mL has been recorded for this entry: O=C(O)c1ccc2ncc(C(=O)Nc3ccccc3)c(O)c2c1
OUTPUT: 82.5

INPUT: Now give it for COc1ccc2c(O)c(C(=O)N(C)c3ccccc3)cnc2c1 too.
OUTPUT: 41.3

INPUT: Now give it for COc1ccc2c(O)c(C(=O)NCC(C)(C)CN(C)C)cnc2c1 too.
OUTPUT: 48.8

INPUT: Now give it for CN(C(=O)c1cnc2ccccc2c1O)c1ccccc1 too.
OUTPUT: 17.7

INPUT: Now give it for O=C(O)c1ccc(NC(=O)c2cnc3ccccc3c2O)cc1 too.
OUTPUT: -1.94

INPUT: Now give it for O=C(Nc1ccc(N(CCO)CCO)cc1)c1cnc2ccccc2c1O too.
OUTPUT: 38

INPUT: Now give it for CSc1ccc2c(c1)c(O)c(C(=O)N(C)c1ccccc1)c(=O)n2C too.
OUTPUT: 13.6

INPUT: Now give it for CN(C(=O)c1cnc2cc(F)ccc2c1O)c1ccccc1 too.
OUTPUT: 4

INPUT: Now give it for O=C(NCCO)c1cnc2cc(Cl)ccc2c1O too.
OUTPUT: 21.3

INPUT: Now give it for CN(C(=O)c1c(O)c2ccccc2n(C)c1=O)c1ccccc1 too.
OUTPUT: 0

INPUT: Now give it for CCCN(CCC)C(=O)c1cnc2cc(Cl)ccc2c1O too.
OUTPUT: -3.57

INPUT: Now give it for CSc1ccc2c(O)c(C(=O)N(C)c3ccccc3)cnc2c1 too.
OUTPUT: 31.1

INPUT: Now give it for O=C(O)c1ccc(NC(=O)c2cnc3ccc(Cl)cc3c2O)cc1 too.
OUTPUT: 17.8

INPUT: Now give it for O=C(O)c1ccc2ncc(C(=O)Nc3cccc(Cl)c3)c(O)c2c1 too.
OUTPUT: 78.5

INPUT: Now give it for CSc1ccc2ncc(C(=O)NCCN(C)C)c(O)c2c1 too.
OUTPUT: -4.33

INPUT: Now give it for CSc1ccc2ncc(C(=O)N(C)c3ccccc3)c(O)c2c1 too.
OUTPUT: -47

INPUT: Now give it for CN(C(=O)c1cnc2cc(Cl)ccc2c1O)c1ccccc1 too.
OUTPUT: -4.33

INPUT: Now give it for CN(C)CC(C)(C)CNC(=O)c1cnc2ccc(F)cc2c1O too.
OUTPUT: 21.3

INPUT: Now give it for CCN(C(=O)c1cnc2c(C)cc(C)cc2c1O)c1ccccc1 too.
OUTPUT: 4.49

INPUT: Now give it for CN(C(=O)c1cnc2cc(C(F)(F)F)ccc2c1O)c1ccccc1 too.
OUTPUT: 39.8

INPUT: Now give it for CSc1cccc2c(O)c(C(=O)N(C)c3ccccc3)cnc12 too.
OUTPUT: -2.46

INPUT: Now give it for O=C(Nc1ccccc1)c1cnc2cc(Cl)ccc2c1O too.
OUTPUT: -2.65

---

Biological target: Tumor necrosis factor (Mus musculus)
Sequence (whole entry): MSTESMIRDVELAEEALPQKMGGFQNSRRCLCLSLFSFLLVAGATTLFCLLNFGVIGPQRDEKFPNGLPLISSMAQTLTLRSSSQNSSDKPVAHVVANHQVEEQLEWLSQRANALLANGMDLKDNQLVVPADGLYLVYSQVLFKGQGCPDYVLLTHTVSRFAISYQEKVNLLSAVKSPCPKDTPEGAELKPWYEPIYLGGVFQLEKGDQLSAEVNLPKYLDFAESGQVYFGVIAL
Test: In vitro percent inhibition of tumor necrosis factor, alpha secreted by macrophage at the dose 100 ug/mL
Type: functional
measured property: inhibition (%)
Note: unit % is implicit; provide only the numeric part.

INPUT: What value of inhibition has been recorded for this entry: CSc1cccc2c(O)c(C(=O)N(C)c3ccccc3)cnc12
OUTPUT: -9.52

INPUT: Now give it for CN(C(=O)c1cnc2cc(C(F)(F)F)ccc2c1O)c1ccccc1 too.
OUTPUT: -3.57

INPUT: Now give it for CN(C(=O)c1cnc2ccccc2c1O)c1ccccc1 too.
OUTPUT: -1.33

INPUT: Now give it for CSc1ccc2c(c1)c(O)c(C(=O)N(C)c1ccccc1)c(=O)n2C too.
OUTPUT: 29.7

INPUT: Now give it for CCCN(CCC)C(=O)c1cnc2cc(Cl)ccc2c1O too.
OUTPUT: -4.03

INPUT: Now give it for O=C(O)c1ccc(NC(=O)c2cnc3ccc(Cl)cc3c2O)cc1 too.
OUTPUT: -5.35
